Reference source: ChEMBL document CHEMBL2417365

# TARGET_DESC: Amine oxidase [flavin-containing] B (Homo sapiens, UniProt P27338)
# Sequence (P27338 whole entry): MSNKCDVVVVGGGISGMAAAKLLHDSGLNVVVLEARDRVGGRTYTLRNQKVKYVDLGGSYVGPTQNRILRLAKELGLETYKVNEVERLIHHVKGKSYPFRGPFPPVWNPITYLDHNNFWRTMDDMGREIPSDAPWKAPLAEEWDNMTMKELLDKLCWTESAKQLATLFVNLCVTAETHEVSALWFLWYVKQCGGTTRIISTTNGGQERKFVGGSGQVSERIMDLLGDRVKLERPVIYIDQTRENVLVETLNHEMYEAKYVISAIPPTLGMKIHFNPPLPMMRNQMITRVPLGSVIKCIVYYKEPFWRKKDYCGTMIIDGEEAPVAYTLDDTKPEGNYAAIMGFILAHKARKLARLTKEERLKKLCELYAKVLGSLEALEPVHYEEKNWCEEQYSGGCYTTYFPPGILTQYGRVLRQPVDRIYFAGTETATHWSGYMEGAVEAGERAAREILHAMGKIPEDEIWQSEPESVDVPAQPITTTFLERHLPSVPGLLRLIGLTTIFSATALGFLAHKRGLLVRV
# MEASUREMENT_PROTOCOL: Ratio of clorgyline IC50 to compound IC50 for human MAO-B
MEASURED_PROPERTY: Ratio IC50

-- ask Item Cc1ccc(C2CC(c3ccccc3)=NN2C)cc1 (stereo unspecified) has what recorded Ratio IC50?
-- reply ≥ 2
